Target: Bifunctional dihydrofolate reductase-thymidylate synthase (Toxoplasma gondii)
pIC50: −log10 of the molar value.
The label depends only on pIC50: true if it is at least 7, false if it is smaller.

See these solved cases before continuing.
{"columns": ["test.smiles", "class.assignment"],
 "data": [
  ["COc1cc(-n2cccc2)c(OC)cc1NCc1cnc2nc(N)nc(N)c2c1C", "true"],
  ["COc1cc(NCc2cnc3nc(N)nc(N)c3c2C)c(-n2cccc2)cc1OC", "false"]
]}

q: Has "COc1cc2c(cc1OC)N(Cc1cnc3nc(N)nc(N)c3c1C)CC2" a recorded pIC50 greater than or equal to 7?
a: true

###

Reported pIC50 is given for each of the following molecules.
Molecular target: UniProtKB P16184
Sequence (P16184 whole entry): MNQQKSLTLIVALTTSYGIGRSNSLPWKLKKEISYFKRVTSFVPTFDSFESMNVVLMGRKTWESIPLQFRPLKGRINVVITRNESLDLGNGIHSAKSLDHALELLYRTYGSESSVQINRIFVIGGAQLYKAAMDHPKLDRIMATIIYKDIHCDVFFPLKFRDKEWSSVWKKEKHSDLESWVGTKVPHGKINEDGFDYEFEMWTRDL
pIC50 here: minus log base 10 of the concentration, concentration in moles per litre.

Please review the entries below; each comes with its answer.
{"columns": ["test.smiles", "observed"],
 "data": [
  ["COc1ccc2c(ccn2Cc2cnc3nc(N)nc(N)c3c2C)c1", 6.24],
  ["COc1cc(-n2cccc2)c(OC)cc1NCc1cnc2nc(N)nc(N)c2c1C", 6.46],
  ["COc1cc2c(cc1OC)N(Cc1cnc3nc(N)nc(N)c3c1C)CC2", 6.39]
]}

q: What does the data say about its pIC50? Entry: "Cc1c(C)c(-n2cccc2)c(C)c(C)c1NCc1cnc2nc(N)nc(N)c2c1C"
a: 6.21

q: Give its pIC50 value. Item: "COc1cc2c(cc1OC)CN(Cc1cnc3nc(N)nc(N)c3c1C)CC2"
a: 6.07

###

Target: Dihydrofolate reductase (Rattus norvegicus)
Sequence (Q920D2 whole entry): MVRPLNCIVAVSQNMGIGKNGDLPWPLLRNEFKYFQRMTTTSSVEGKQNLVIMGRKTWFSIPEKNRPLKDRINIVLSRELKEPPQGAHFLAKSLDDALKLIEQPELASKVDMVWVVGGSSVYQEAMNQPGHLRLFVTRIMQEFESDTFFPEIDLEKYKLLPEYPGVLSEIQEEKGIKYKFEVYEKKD
endpoint.label: IC50 (nM)
Dear colleague, please return just the value in nM, with no unit written.

{"columns": ["test.smiles", "IC50 [nM]"],
 "data": [
  ["COc1cc2c(cc1OC)CN(Cc1cnc3nc(N)nc(N)c3c1C)CC2", 130],
  ["Cc1c(C)c(-n2cccc2)c(C)c(C)c1NCc1cnc2nc(N)nc(N)c2c1C", 170],
  ["COc1cccc2c1CCN2Cc1cnc2nc(N)nc(N)c2c1C", 150],
  ["COc1ccc2c(ccn2Cc2cnc3nc(N)nc(N)c3c2C)c1", 470],
  ["COc1cc(NCc2cnc3nc(N)nc(N)c3c2C)c(-n2cccc2)cc1OC", 3500]
]}

q: // IC50 lookup, key: "COc1ccc(-c2ccccc2)cc1NCc1cnc2nc(N)nc(N)c2c1C"
a: 440

q: Consider the molecule "COc1ccc2c(c1)CCN2Cc1cnc2nc(N)nc(N)c2c1C" and give its measured IC50.
a: 170

###

Molecular target: Bifunctional dihydrofolate reductase-thymidylate synthase (Toxoplasma gondii)
Sequence (Q07422 whole entry): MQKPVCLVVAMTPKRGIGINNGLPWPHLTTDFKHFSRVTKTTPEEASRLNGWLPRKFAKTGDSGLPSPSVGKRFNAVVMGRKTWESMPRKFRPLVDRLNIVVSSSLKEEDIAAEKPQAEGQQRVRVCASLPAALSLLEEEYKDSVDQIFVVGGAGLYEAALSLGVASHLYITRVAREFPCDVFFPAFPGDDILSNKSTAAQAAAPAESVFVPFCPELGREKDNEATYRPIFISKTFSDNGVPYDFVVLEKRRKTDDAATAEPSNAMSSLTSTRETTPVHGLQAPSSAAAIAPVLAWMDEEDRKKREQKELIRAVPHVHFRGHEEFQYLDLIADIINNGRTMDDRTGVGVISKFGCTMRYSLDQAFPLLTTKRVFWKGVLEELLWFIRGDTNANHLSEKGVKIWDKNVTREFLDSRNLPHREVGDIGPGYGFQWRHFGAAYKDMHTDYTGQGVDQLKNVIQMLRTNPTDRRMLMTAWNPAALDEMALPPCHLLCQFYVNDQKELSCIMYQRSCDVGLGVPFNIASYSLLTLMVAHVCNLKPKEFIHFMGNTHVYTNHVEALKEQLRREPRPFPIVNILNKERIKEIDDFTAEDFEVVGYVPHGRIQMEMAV
endpoint.label: IC50 (µM)
Write the number in µM without appending the unit.

{"columns": ["test.smiles", "observed"],
 "data": [
  ["COc1cccc2c1CCN2Cc1cnc2nc(N)nc(N)c2c1C", 0.048],
  ["COc1ccc2c(c1)CCN2Cc1cnc2nc(N)nc(N)c2c1C", 0.057]
]}

Turning now to a further molecule:
q: Looking for the measured IC50 of "COc1ccc(-c2ccccc2)cc1NCc1cnc2nc(N)nc(N)c2c1C" , can you help?
a: 0.068

###

The entries below are paired with their reported logP.
Assay: Partition coefficient (logP)
Type: physicochemical
Settings: octanol/water
# answer = number (no unit)

These solved cases illustrate the format of a correct answer.
{"columns": ["test.smiles", "observed"],
 "data": [
  ["COc1cc2c(cc1OC)N(Cc1cnc3nc(N)nc(N)c3c1C)CC2", 2.33],
  ["COc1ccc2c(ccn2Cc2cnc3nc(N)nc(N)c3c2C)c1", 3.07]
]}

Moving on to the next compound.
q: Look up logP: "COc1ccc(-c2ccccc2)cc1NCc1cnc2nc(N)nc(N)c2c1C"
a: 4.77

###

Target: Bifunctional dihydrofolate reductase-thymidylate synthase (Toxoplasma gondii, UniProt Q07422)
Sequence (Q07422 whole entry): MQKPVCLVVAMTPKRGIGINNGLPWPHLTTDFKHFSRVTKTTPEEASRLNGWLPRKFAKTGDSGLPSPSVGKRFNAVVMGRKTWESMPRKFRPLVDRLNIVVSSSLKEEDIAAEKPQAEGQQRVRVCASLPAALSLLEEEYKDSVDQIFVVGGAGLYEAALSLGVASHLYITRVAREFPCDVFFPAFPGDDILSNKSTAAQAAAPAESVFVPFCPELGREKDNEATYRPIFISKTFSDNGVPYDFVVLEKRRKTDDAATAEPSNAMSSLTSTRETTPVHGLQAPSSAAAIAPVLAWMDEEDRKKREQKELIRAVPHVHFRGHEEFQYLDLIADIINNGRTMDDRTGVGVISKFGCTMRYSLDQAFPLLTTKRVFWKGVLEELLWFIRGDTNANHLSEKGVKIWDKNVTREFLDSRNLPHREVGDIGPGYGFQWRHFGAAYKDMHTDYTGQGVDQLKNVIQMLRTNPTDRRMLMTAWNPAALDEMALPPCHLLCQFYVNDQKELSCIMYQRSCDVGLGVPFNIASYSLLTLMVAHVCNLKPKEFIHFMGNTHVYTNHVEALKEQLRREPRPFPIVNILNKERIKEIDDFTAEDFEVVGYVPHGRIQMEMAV
endpoint.label: IC50 (µM)
Lab book: enter the figure in µM, no units written.

{"columns": ["test.smiles", "observed"],
 "data": [
  ["Cc1c(C)c(-n2cccc2)c(C)c(C)c1NCc1cnc2nc(N)nc(N)c2c1C", 0.075],
  ["COc1ccc2c(ccn2Cc2cnc3nc(N)nc(N)c3c2C)c1", 0.077]
]}

Would you kindly look at the next entry?
q: Entry "COc1cc2c(cc1OC)CN(Cc1cnc3nc(N)nc(N)c3c1C)CC2" has what IC50?
a: 0.11
